ENDPOINT_LABEL: melting point

{"columns": ["COMPOUND", "melting point"],
 "data": [
  ["Nc1nc(N)c(C2CC2)c(OCCOCP(=O)(O)O)n1", "255 to 256 °C"],
  ["Nc1nc(N)c(CC(=O)O)c(OCCOCP(=O)(O)O)n1 (hydrate or solvate)", "228 to 229 °C"]
]}

What does the record list as melting point for CCOC(=O)Cc1c(N)nc(N)nc1OCCOCP(=O)(O)O ?
199 to 200 °C

What does the record list as melting point for Nc1nc(N)c(-c2ccccc2)c(OCCOCP(=O)(O)O)n1 (hydrate or solvate) ?
230 to 231 °C

What does the record list as melting point for Nc1nc(N)c(C=O)c(OCCOCP(=O)(O)O)n1 (hydrate or solvate) [Example 9] ?
225 to 227 °C

What does the record list as melting point for Nc1nc(N)c(Cc2ccccc2)c(OCCOCP(=O)(O)O)n1 (hydrate or solvate) ?
241 to 242 °C

What does the record list as melting point for N#CCc1c(N)nc(N)nc1OCCOCP(=O)(O)O ?
258 to 259 °C (dec.)
